Data provenance: ChEMBL document CHEMBL3091451

Progesterone receptor (Homo sapiens) measurements of IC50, listed per entry.
Sequence (P06401 whole entry): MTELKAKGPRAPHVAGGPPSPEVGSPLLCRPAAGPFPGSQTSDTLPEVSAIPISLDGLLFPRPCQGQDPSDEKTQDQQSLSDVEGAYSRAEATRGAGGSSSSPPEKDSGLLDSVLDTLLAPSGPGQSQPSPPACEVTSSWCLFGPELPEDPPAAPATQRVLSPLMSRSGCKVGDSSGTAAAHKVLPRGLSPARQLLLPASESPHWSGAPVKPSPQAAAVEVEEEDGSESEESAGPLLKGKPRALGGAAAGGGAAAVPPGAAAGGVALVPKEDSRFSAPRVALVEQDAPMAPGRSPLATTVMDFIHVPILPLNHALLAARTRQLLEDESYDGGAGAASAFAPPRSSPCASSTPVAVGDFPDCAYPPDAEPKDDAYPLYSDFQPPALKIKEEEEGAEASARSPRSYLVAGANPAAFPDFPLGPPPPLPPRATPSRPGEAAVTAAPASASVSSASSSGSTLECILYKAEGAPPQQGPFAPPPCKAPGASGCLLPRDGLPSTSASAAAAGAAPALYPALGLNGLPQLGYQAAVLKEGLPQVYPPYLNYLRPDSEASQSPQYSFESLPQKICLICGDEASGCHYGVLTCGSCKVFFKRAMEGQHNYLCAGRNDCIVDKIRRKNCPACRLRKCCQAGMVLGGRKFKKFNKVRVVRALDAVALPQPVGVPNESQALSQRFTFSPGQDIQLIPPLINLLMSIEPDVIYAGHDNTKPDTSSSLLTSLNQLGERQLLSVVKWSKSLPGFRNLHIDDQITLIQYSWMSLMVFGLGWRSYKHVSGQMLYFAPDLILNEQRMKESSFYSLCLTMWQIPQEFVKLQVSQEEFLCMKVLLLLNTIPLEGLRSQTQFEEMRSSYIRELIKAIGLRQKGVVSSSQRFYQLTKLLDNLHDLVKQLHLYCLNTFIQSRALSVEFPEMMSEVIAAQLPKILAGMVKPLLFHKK
Supply the numeric figure in nM, leaving out any unit text.

Take a look at these entries with their results.
1. Cc1cc(C)c(S(=O)(=O)NC(Cc2c[nH]c3ccccc23)C(F)(F)F)c(C)c1 (centres undefined) : 3600
2. Cc1cc(C)c(S(=O)(=O)NC(Cc2c[nH]c3cc(C#N)ccc23)C(F)(F)F)c(C)c1 (centres undefined) : 2000
3. Cc1cc(C)c(S(=O)(=O)NC(Cn2ccc3c(C#N)cccc32)C(F)(F)F)c(C)c1 (centres undefined) : 700
4. Cc1cc(C)c(S(=O)(=O)NC(CSc2ccccc2)C(F)(F)F)c(C)c1 (centres undefined) : 2000
5. Cc1cc(C)c(S(=O)(=O)NC(Cc2c[nH]c3c(C#N)cccc23)C(F)(F)F)c(C)c1 (centres undefined) : 540

Challenge: Return value of IC50 for input Cc1cc(C)c(S(=O)(=O)NC(Cn2cc(C#N)c3ccccc32)C(F)(F)F)c(C)c1 (centres undefined) , no commentary.
Response given: 530

Challenge: Look up and state reported IC50 for Cc1cc(C)c(S(=O)(=O)NC(Cc2c[nH]c3c(C)cccc23)C(F)(F)F)c(C)c1 (centres undefined)
Response given: 5900
